meta.source: PubChem BioAssay AID2060494

system: 435261-313-R-J1-PDC complex spheroid viability; test: Anticancer human tumor 435261-313-R-J1-PDC patient-derived colon adenocarcinoma cell line growth inhibition [GQUAD]; conditions: curve of compound
pIC50: −log10 of the molar value.
Measured pIC50 of individual entries

Examples with their reported pIC50 follow.
CC(C)(O)C1CCC(Nc2ccc3ncc(-c4cccc(C(F)(F)F)c4)n3n2)CC1 (stereo unspecified)    6.18
COc1ncnc(C2CC2)c1-c1ncc2cnn(Cc3ccc(-c4nc(C(F)(F)F)cn4C(C)C)cc3)c2n1    < 5.00
COc1cc(C2c3cc4c(cc3C(OC3OC5COC(C)OC5C(O)C3O)C3COC(=O)C23)OCO4)cc(OC)c1O (stereo unspecified)    < 5.00
O=C(NO)c1cnc(N2CCN(S(=O)(=O)c3ccc4ccccc4c3)CC2)nc1    6.50

Exercise: Return reported pIC50; argument: `O=C(c1cc(Cc2n[nH]c(=O)c3ccccc23)ccc1F)N1CCN(C(=O)C2CC2)CC1`
Key: < 5.00

Exercise: Moving on to the next compound: `CC[C@@]1(O)C(=O)OCc2c1cc1n(c2=O)Cc2cc3c(CN(C)C)c(O)ccc3nc2-1`
Key: < 6.50

Exercise: Also, `O=c1[nH]cc(F)c(=O)[nH]1` please.
Key: < 5.00

Exercise: Similarly, `Cn1ncnc1[C@H]1c2n[nH]c(=O)c3cc(F)cc(c23)N[C@@H]1c1ccc(F)cc1` ?
Key: < 6.50

Exercise: Now this one: Nc1ccn(C2OC(CO)C(O)C2(F)F)c(=O)n1 (stereo unspecified)
Key: < 5.00

Exercise: Same lookup for Cc1cccc(N(C)C(=O)C2C(O)CCN2c2nc(C)cc(C(F)(F)F)c2C#N)c1 (stereo unspecified) , please.
Key: < 5.00

Exercise: What would you report for C=CC(=O)N1CCN(c2nc(=O)n(-c3c(C)ccnc3C(C)C)c3nc(-c4c(O)cccc4F)c(F)cc23)C(C)C1 (stereo unspecified) ?
Key: < 5.00

----------
Collected viability, T/C values appear next to each entry.
tested on: 435261-313-R-J1-PDC complex spheroid viability; assay: Anticancer human tumor 435261-313-R-J1-PDC cell line growth inhibition [GQUAD]; details: second compound 0.0316 µM; first compound 0.00316 µM; stronger effect = lower value;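 also: spheroids exposed to the agents for seven days before readout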;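 as to viability, T/C: percent of vehicle control viability with DMSO wells as 100%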
Quick reminder: number only, in %, skip the unit.

Please review the entries below; each comes with its answer.
CCc1c2c(nc3ccc(O)cc13)-c1cc3c(c(=O)n1C2)COC(=O)[C@]3(O)CC + Cc1cnc(CNC(=O)c2c(=O)c3ccc(N4CCCN(C)CC4)nc3n3c2sc2ccccc23)cn1    60.3
Cn1ncnc1[C@H]1c2n[nH]c(=O)c3cc(F)cc(c23)N[C@@H]1c1ccc(F)cc1 + Cc1[nH]c2ccc(F)cc2c1-c1nc2c3cccnc3c3ncccc3c2[nH]1    95.4
Cc1[nH]c2ccccc2c1CCNCc1ccc(/C=C/C(=O)NO)cc1 + CN(C)c1ccc(Nc2c3ccc(NC(=O)CCN4CCCC4)cc3nc3cc(NC(=O)CCN4CCCC4)ccc23)cc1    86
Cn1ncnc1[C@H]1c2n[nH]c(=O)c3cc(F)cc(c23)N[C@@H]1c1ccc(F)cc1 + Cc1cnc(CNC(=O)c2c(=O)c3ccc(N4CCCN(C)CC4)nc3n3c2sc2ccccc23)cn1    60.3
Cn1ncnc1[C@H]1c2n[nH]c(=O)c3cc(F)cc(c23)N[C@@H]1c1ccc(F)cc1 + CN(C)c1ccc(Nc2c3ccc(NC(=O)CCN4CCCC4)cc3nc3cc(NC(=O)CCN4CCCC4)ccc23)cc1    92.3

Exercise: If you can, please state the reported viability, T/C value of CCc1c2c(nc3ccc(O)cc13)-c1cc3c(c(=O)n1C2)COC(=O)[C@]3(O)CC + CN(C)c1ccc(Nc2c3ccc(NC(=O)CCN4CCCC4)cc3nc3cc(NC(=O)CCN4CCCC4)ccc23)cc1 .
Key: 103

Exercise: Similarly, CC[C@@]1(O)C(=O)OCc2c1cc1n(c2=O)Cc2cc3c(CN(C)C)c(O)ccc3nc2-1 + Cc1cnc(CNC(=O)c2c(=O)c3ccc(N4CCCN(C)CC4)nc3n3c2sc2ccccc23)cn1 ?
Key: 63
